Reported Property: melting point

- CCOC(=O)[C@H]1c2c(C)cccc2[C@H]2CC[C@]3(O)C[C@@]21C[C@]3(O)CNCc1ccccc1 [Compound 4]: 97 to 99 °C
- CCOC(=O)[C@H]1c2c(C)cccc2[C@H]2CC[C@]3(O)C[C@@]21C[C@]3(O)Cn1cnc2ccccc21 [Compound 27]: 221 to 222 °C
- CCOC(=O)[C@H]1c2c(C)cccc2[C@H]2CC[C@]3(O)C[C@@]21C[C@]3(O)CN1CCN(C)CC1 [Compound 22]: 42 to 45 °C
- CCOC(=O)[C@H]1c2c(C)cccc2[C@H]2CC[C@]3(O)C[C@@]21C[C@]3(O)CNCc1ccc(F)cc1 [Compound 9]: 253 to 254 °C

---

- Tested on: HeLa cells (cervical cancer)
- Test Description: MTT antiproliferative assay, HeLa
- Assay type: cell-based, human
- Condition Notes: Homo sapiens, 10 μM, 72 h, read-out: Growth inhibition (%) ± SEM
Reported Property: inhibition at 10 µM (%)

* CCOC(=O)[C@H]1c2c(C)cccc2[C@H]2CC[C@]3(O)C[C@@]21C[C@]3(O)CN[C@@H](CC)c1ccccc1 | 27.5
* CCOC(=O)[C@H]1c2c(C)cccc2[C@H]2CC[C@]3(O)C[C@@]21C[C@]3(O)CN[C@@H](C)c1ccc(F)cc1 | 38.5
* CCOC(=O)[C@@H]1c2c(C)cccc2C2CC[C@]3(O)C[C@@]21C[C@]3(O)CN[C@@H](C)c1ccc2ccccc2c1 (stereo partly drawn) | 40.1
* CCOC(=O)[C@H]1c2c(C)cccc2[C@H]2CC[C@]3(O)C[C@@]21C[C@]3(O)CN(Cc1ccccc1)Cc1ccccc1 | 40.8
* CCOC(=O)[C@@H]1c2c(C)cccc2C2CC[C@]3(O)C[C@@]21C[C@]3(O)CN[C@H](C)c1cccc2ccccc12 (stereo partly drawn) | 35.8
